All values here come from patent US20250332173A1.

A collection of compounds and their measured IC50
System: MYB mRNA
Assay: RT-qPCR splicing assay, MYB canonical junction (CJ) and alternative junction (AJ) mRNA
Assay type: cell-based, human
Details: Homo sapiens; decrease in MYB canonical junction (CJ) mRNA, RT-qPCR; read-out: MYB CJ IC50

Worked cases, IC50 given:
INSERT INTO assay_data (compound, parameter_measured, reading) VALUES
  ('Cc1cn2cc(-c3ccc4c(=O)n(C5CCNCC5)cnc4c3)cc(F)c2n1 [Compound 205]', 'IC50', '100 to 1000 nM'),
  ('Cc1cn2cc(-n3cnc4ccc(N5CCNCC5)cc4c3=O)cc(F)c2n1 [Compound 2195]', 'IC50', '> 10000 nM'),
  ('Cc1cn2nc(-c3cc(O)c4c(=O)n(C5CCNC5)cc(C)c4c3)cc(C)c2n1 (stereo not shown) [Compound 462]', 'IC50', '1000 to 10000 nM'),
  ('Cc1cn2cc(-c3cc(F)c4c(=O)n(C5CCNC6(CC6)C5)ccc4c3)ncc2n1 (stereo not shown) [Compound 428]', 'IC50', '100 to 1000 nM');

Next compound, IC50 to be filled in.
Entry Cc1cn2nc(-c3ccc4c(c3)CCN(C3CCNCC3)C4=O)cc(C)c2n1 [Compound 185] needs its IC50 filled in; supply it.
1000 to 10000 nM
